Assay explanation: Lactate dehydrogenase (LDH) release assay
Type: cell-based
Recorded conditions: 10% FBS 16Hr; read-out: LDH: Cytotoxicity assay: EC50
Experimental readout: EC50

Record request: EC50 value, item CC(=O)N[C@@H](CCCCN=[N+]=[N-])C(=O)NCCC(=O)N[C@@H](CC(C)C)C(=O)N[C@H](C(=O)N[C@@H](Cc1ccccc1)C(=O)N[C@]1(C)CCCCCCC=CCCC[C@@](C)(C(=O)N[C@@H](C)C(=O)N[C@@H](C)C(=O)N[C@@H](C)C(=O)O)NC(=O)[C@H](CC2CCC2)NC(=O)[C@H](CCC(N)=O)NC(=O)[C@H](C)NC(=O)[C@H](Cc2c[nH]c3ccccc23)NC(=O)[C@H](Cc2ccc(O)cc2)NC(=O)[C@H](CCC(=O)O)NC1=O)[C@@H](C)O [MP-684]
> 50.7 µM
